- TARGET_OF_ASSAY: T1, human G-protein-coupled receptor family C group 5 member D (GPRC5D) (human, UniProt Q9NZD1 1-345)
- T1 construct: whole, on cells; also called human GPRC5D protein
- ASSAY_EXPLANATION: FACS, CHO-K1/human GPRC5D
RECORDED_METRIC: Top
Form field (numeric): enter value without unit.

Recorded Top, per entry:
58F9G10-XI (antibody, V domains shown, also called 58F9G10 (chimeric); 58-XI) VH: EVQLQQSGPELVKTGASVKISCKASGYSFTGYYIHWVKQSHGKSLEWIGYISCYNGATSFNQKFKGKATFTVDTSSSTAYMQFNSLTSEDSAVYYCARTELRGPWFAYWGQGTLVTVSA VL: QTVLTQSPAIMSASPGEKVTMTCSASSSVSYMNWYQQKSGTSPKRWIYDTSKLASGVPARFSGSGSGTSYSLTISSMEAEDAATYYCQQWSNNPLTFGAGTKLELK : 107000
37-H1L1 (antibody, V domains shown, humanized 37B9C4, VH v1 x VL v1; also called 37B9C4 (H1L1)) VH: EVQLVESGGGLVQPGGSLRLSCAASGFTFSDYWMNWVRQAPGKGLEWVAEIRLKSNNYATHYAESVKGRFTISRDNAKNSLYLQMNSLRAEDTAVYYCARPLLWFRRYYAMDYWGQGTLVTVSS VL: DIQMTQSPSSLSASVGDRVTITCSASQGISNYLNWYQQKPGKAPKLLIYYTSSLHSGVPSRFSGSGSGTDFTLTISSLQPEDFATYYCQQYSKLPFTFGQGTKLEIK : 102000

--- query ---
Value lookup for Top; key = 6-H4L3 (antibody, V domains shown, humanized 6G10D9, VH v4 x VL v3) VH: QVQLVQSGAEVAKPGASVKMSCKASGYTFTTYTMHWVKQAPGQGLEWLGYINPSSGYTNYNQKFKDRVTLTADTSTSTVYMELSSLRSEDTAVYYCASLRSRGYFDYWGQGTLLTVSS VL: DIQMTQSPSFLSTSVGDRVTITCKASQNVGTAVVWYQQKPGKSPKLLIYSASNRYTGVPSRFSGSGSGTEFTLTISSMQPEDFATFFCQQYSSYPYTFGQGTKLEIK
146000
